target.desc: UniProt:P51531
Sequence (P51531 whole entry): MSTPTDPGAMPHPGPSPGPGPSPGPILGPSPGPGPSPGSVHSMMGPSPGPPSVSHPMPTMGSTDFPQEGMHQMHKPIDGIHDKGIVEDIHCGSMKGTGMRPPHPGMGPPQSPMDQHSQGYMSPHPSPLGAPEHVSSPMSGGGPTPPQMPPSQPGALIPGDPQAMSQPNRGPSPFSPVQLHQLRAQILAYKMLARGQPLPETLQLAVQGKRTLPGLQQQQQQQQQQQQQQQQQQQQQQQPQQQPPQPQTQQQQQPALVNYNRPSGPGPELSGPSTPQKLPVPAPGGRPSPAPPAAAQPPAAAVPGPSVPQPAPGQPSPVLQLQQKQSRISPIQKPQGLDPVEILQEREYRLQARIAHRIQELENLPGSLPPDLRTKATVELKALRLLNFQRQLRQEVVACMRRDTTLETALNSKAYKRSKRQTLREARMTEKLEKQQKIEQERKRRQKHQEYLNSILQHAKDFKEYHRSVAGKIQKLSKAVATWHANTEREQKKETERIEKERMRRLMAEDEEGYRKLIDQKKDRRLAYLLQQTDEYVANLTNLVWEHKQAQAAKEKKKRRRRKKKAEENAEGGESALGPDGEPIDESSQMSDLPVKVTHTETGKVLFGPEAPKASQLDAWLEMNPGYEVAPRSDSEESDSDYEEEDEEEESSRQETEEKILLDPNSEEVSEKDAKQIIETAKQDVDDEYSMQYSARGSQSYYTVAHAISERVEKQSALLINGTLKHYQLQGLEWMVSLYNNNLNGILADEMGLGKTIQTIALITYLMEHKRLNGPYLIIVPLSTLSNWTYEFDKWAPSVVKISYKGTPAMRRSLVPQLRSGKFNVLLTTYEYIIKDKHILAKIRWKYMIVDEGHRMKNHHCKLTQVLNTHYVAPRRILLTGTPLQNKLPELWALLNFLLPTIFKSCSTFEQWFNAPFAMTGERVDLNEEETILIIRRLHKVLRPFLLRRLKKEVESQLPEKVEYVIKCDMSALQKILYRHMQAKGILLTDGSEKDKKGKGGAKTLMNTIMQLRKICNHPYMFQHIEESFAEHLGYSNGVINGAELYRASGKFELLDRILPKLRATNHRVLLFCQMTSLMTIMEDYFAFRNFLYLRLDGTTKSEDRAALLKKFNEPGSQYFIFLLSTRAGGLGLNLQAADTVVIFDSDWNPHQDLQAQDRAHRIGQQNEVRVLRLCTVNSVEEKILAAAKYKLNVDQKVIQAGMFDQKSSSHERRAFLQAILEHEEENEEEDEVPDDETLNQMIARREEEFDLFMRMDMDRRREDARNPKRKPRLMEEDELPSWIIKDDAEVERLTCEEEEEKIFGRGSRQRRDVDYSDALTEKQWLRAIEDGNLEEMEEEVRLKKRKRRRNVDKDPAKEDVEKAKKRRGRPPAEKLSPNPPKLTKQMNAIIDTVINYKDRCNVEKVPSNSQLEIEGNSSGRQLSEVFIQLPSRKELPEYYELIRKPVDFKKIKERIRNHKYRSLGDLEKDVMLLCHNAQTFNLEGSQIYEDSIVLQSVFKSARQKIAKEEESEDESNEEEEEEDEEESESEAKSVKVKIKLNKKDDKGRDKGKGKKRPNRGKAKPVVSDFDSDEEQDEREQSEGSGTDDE
assay.remarks: MSD SMARCA2 degradation in A549 cell line
Assay type: cell-based
Set-up: endogenous in cells
measurement.context: A549 cells, 24 h, read-out: SMARCA2 MSD A549 degradation 24 h: Average external-Abs DC50
Property: DC50; scope: individual compounds

compound: Cc1ncsc1-c1ccc(CNC(=O)[C@@H]2C[C@@H](O)CN2C(=O)C(c2cc(OCCN3CCC(c4cnc(N5C6CCC5CN(c5cc(-c7ccccc7O)nnc5N)C6)nc4)CC3)no2)C(C)C)cc1 (some centres unmarked) [I-50]
target.desc: UniProt:P51531
DC50: < 100 nM

compound: Cc1ncsc1-c1ccc(CNC(=O)[C@@H]2C[C@@H](O)CN2C(=O)[C@@H](NC(=O)CN(C)Cc2cnc(N3C4CCC3CN(c3cc(-c5ccccc5O)nnc3N)C4)nc2)C(C)(C)C)cc1 [I-37]
target.desc: UniProt:P51531
DC50: 501 to 1000 nM

compound: Cc1ncsc1-c1ccc(CNC(=O)[C@@H]2C[C@@H](O)CN2C(=O)[C@@H](NC(=O)[C@H]2CC3(C2)C[C@H](N2CCC(c4ccc(N5C6CCC5CN(c5cc(-c7ccccc7O)nnc5N)C6)cc4)CC2)C3)C(C)(C)C)nc1 (some centres unmarked) [I-24]
target.desc: UniProt:P51531
DC50: > 1000 nM

compound: Cn1nccc1-c1ccc(CNC(=O)[C@@H]2C[C@@H](O)CN2C(=O)[C@@H](NC(=O)[C@H]2CC3(C2)C[C@H](N2CCC(c4cnc(N5C6CCC5CN(c5cc(-c7ccccc7O)nnc5N)C6)nc4)CC2)C3)C(C)(C)C)cc1 (some centres unmarked) [I-35]
target.desc: UniProt:P51531
DC50: 100 to 500 nM

compound: Cc1ncsc1-c1ccc(CNC(=O)[C@@H]2C[C@H](O)CN2C(=O)[C@@H](NC(=O)[C@H]2CC3(C2)C[C@H](N2CCC(c4cnc(N5C6CCC5CN(c5cc(-c7ccccc7O)nnc5N)C6)nc4)CC2)C3)C(C)(C)C)cc1 (some centres unmarked) [I-79]
target.desc: UniProt:P51531
DC50: > 1000 nM
